Target: 2-aminomuconate-6-semialdehyde dehydrogenase (AMSDH) (Pseudomonas fluorescens, UniProt Q83V33, R464A)
Sequence (Q83V33 entry or part of it R464A): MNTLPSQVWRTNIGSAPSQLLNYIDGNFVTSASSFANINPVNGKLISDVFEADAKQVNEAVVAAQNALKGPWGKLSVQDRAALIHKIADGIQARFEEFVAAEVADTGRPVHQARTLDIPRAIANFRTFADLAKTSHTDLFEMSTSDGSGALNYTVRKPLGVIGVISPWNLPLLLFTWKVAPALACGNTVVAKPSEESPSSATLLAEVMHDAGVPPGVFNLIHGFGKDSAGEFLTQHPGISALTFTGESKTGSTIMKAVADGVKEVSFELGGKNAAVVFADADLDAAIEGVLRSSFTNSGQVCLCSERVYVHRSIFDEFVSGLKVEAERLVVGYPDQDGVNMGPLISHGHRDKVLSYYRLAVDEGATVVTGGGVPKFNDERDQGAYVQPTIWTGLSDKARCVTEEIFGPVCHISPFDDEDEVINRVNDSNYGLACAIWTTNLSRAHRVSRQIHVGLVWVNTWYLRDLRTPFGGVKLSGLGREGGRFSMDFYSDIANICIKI
Assay: steady-state kinetics; substrate inhibition Ki (Km […])
endpointLabel: Ki

# Ki (molecule: O=C/C=C/C=C(/O)C(=O)O [2-HMS, 2-hydroxymuconate-6-semialdehyde] ) is ~6 µM
